test system: VPS34; construct: gene PIK3C3; details: concentration: 1 μM, replicates: in singlicate; n = 1;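 note: KINOMEscan kinase panel screen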
assayReadout: %Inh (%)
Number only, in %; omit the unit.

Given O=c1cc(N2CCOCC2)nc2n(Cc3cccc4ccccc34)ccn12 , state its recorded %Inh. 98

Continuing:
Given CC(C)(C)n1cnc2c(N)ncnc21 , state its recorded %Inh. 15

---

# key: entry, value: %Inh
test system: CDK4-cyclinD1; settings: concentration: 1 μM, replicates: in singlicate; n = 1
Number only, in %; omit the unit.

Given COc1ccc(COc2cc(-n3cnc4ccccc43)sc2C(N)=O)cc1 , state its recorded %Inh. 0

Follow-up item: C[C@@H](Oc1cc(-n2cnc3ccc(NC(=O)NC(C)(C)C)cc32)sc1C(N)=O)c1ccccc1Cl 8

Follow-up item: O=C(NOCC1CC1)c1ccc(F)c(F)c1Nc1ccc(I)cc1Cl 0

Follow-up item: Cc1cccc(Cn2ccn3c(=O)cc(N4CCOCC4)nc23)c1 0

Follow-up item: COc1cc2c(cc1OCCN1CCN(C)CC1)ncc1c3ccc(C#N)cc3[nH]c21 0

Continuing:
Given O=C(NCCCN1CCOCC1)c1cccc(Nc2nccc(Nc3ccc(Oc4ccccc4)cc3)n2)c1 , state its recorded %Inh. 6

Follow-up item: Cn1ccc2ncnc(Oc3ccc(NC(=O)Nc4ccncc4)c(Cl)c3)c21 0

Follow-up item: Cc1cccc(-c2nc(Nc3ccc4ncsc4c3)c3ccccc3n2)n1 0

Follow-up item: CNc1ncnc2[nH]ncc12 0

Follow-up item: COCCNC(=O)c1ccc(-c2cc(C(=O)NC3CC3)cc(F)c2C)cc1 24

Follow-up item: CCCCCc1nc2c(N)ncnc2n1CCCCC 0

---

test system: MAK; settings: concentration: 1 μM, replicates: in singlicate; n = 1
assayReadout: %Inh
Give me the value, and tack the unit on after it.

Example results:
Query the reported %Inh for MAK; item: COc1cc2c(cc1OCCN1CCN(C)CC1)ncc1c3ccc(C#N)cc3[nH]c21 21%

Follow-up item: Cc1c2ccc(N(C)c3ccnc(Nc4cccc(S(N)(=O)=O)c4)n3)cc2nn1Cc1ccccc1.Cl.Cl 0%

Follow-up item: O=C(NCCNc1ccnc(Nc2ccc(F)cc2)n1)Nc1ccccc1F 0%

Follow-up item: Cl.Oc1cccc(Nc2ccnc3cc(-c4ccncc4)ccc23)c1 61%

Okay, now this molecule:
Query the reported %Inh for MAK; item: COc1ccc(Nc2ncc(C#N)c(Nc3ccccc3C(N)=O)n2)cc1N1CCN(C)CC1.Cl 66%

---

system: ROCK2; settings: concentration: 1 μM, replicates: in singlicate; n = 1
assayReadout: %Inh (%)
Number only, in %; omit the unit.

Example results:
Given O=C(Nc1cccc(-c2nn3ncccc3c2-c2ccnc(Nc3cccc(C(F)(F)F)c3)n2)c1)c1c(F)cccc1F , state its recorded %Inh. 16

Follow-up item: COc1ccc(CNC(=O)NC2CCN(c3ccnc(Nc4ccc(OC)cc4)n3)C2)cc1 (stereo not shown) 40

Follow-up item: COc1cc2c(cc1OC[C@@H](O)CO)ncc1c3ccc(C#N)cc3[nH]c21 96.9

Continuing:
Given Cc1c(Cn2c(C)nn3c(=O)cc(N4CCOC(C)C4)nc23)cccc1C(F)(F)F (stereo not shown) , state its recorded %Inh. 10

---

test system: TNK2; details: concentration: 1 μM, replicates: in singlicate; n = 1
# key: entry, value: %Inh

Example results:
Query the reported %Inh for TNK2; item: Nc1nccc(-c2c(-c3ccc(F)cc3)ncn2C2CCN(CC(F)(F)F)CC2)n1 [SB-236560] 10%

Follow-up item: Cc1cccc(-c2nc(Nc3ccc4ncsc4c3)c3ccccc3n2)n1 [GW867588] 0%

Follow-up item: O=c1cc(N2CCOCC2)nc2n(Cc3cccc(Cl)c3Cl)c(C3CC3)nn12 [GSK2358994] 5%

Continuing:
Query the reported %Inh for TNK2; item: Cc1nnc(-c2ccc(C)c(-c3ccc(C(=O)Nc4ccc(NS(C)(=O)=O)cc4)cc3)c2)o1 [GW702865] 3%

Follow-up item: CN(C1=C(c2ccccc2)C(=O)NC1=O)c1ccccc1 [SB-334860] 18%

---

tested on: CAMK1G; settings: concentration: 1 μM, replicates: in singlicate; n = 1
assayReadout: %Inh (%)
Number only, in %; omit the unit.

Given O=C(NOCC1CC1)c1ccc(F)c(F)c1Nc1ccc(I)cc1Cl , state its recorded %Inh. 0

Follow-up item: CSc1ccc(-c2cc3ncnc(SCC(=O)O)c3s2)cc1 0

Follow-up item: CN(C1=C(c2ccccc2)C(=O)NC1=O)c1ccccc1 0

Follow-up item: O=C(c1ccc(-c2cc(-c3c[nH]nc3-c3ccccn3)ccn2)cc1)N1CCOCC1 0

Follow-up item: CCCCCc1nc2c(N)ncnc2n1CCCCC 15

Follow-up item: COc1cc2c(cc1OCCN1CCN(C)CC1)ncc1c3ccc(C#N)cc3[nH]c21 16

Follow-up item: Cc1nnc(-c2ccc3ncc(-c4ccc(S(C)=O)cc4)n3c2)o1 (stereo not shown) 26

Follow-up item: NS(=O)(=O)c1cccc(-c2ccc3nccc(-c4cccc(S(N)(=O)=O)c4)c3c2)c1 0

Follow-up item: Fc1ccc(-c2nn3c(OCC(F)(F)F)cccc3c2-c2ccncc2)cc1 0

Follow-up item: O=C(NCCNc1ccnc(Nc2ccc(F)cc2)n1)Nc1ccccc1F 0

Okay, now this compound:
Given CCc1ccnc(/C=C/c2n[nH]c3cc(Sc4ccccc4C(=O)NC)ccc23)c1 , state its recorded %Inh. 2

---

# key: entry, value: %Inh
tested on: PCTK3; construct: gene CDK18; settings: concentration: 1 μM, replicates: in singlicate; n = 1
Number only, in %; omit the unit.

Example results:
Given COc1ccc(CNC(=O)NC2CCN(c3ccnc(Nc4ccc(OC)cc4)n3)C2)cc1 (stereo not drawn) [GSK1379727] , state its recorded %Inh. 4

Follow-up item: CC(C)(CN)c1nc(-c2ccc(Cl)c(O)c2)c(-c2ccncc2)[nH]1.O=C(O)C(F)(F)F [SB-477794] 0

Follow-up item: NS(=O)(=O)c1cccc(-c2ccc3ncc(N4CCOCC4)nc3c2)c1 [GSK1535721] 0

Follow-up item: c1ccc(-c2n[nH]cc2-c2ccnc3ccccc23)nc1 [GW271431] 20

Follow-up item: O=c1cc(N2CCOCC2)nc2n(Cc3cccc(Cl)c3Cl)c(C3CC3)nn12 [GSK2358994] 3

Follow-up item: Cl.Nc1ncnc2occ(-c3ccc(NC(=O)Nc4cc(C(F)(F)F)ccc4F)cc3)c12 [SB-707548] 67

Continuing:
Given CN(C1=C(c2ccccc2)C(=O)NC1=O)c1ccccc1 [SB-334860] , state its recorded %Inh. 11

Follow-up item: COc1ccc(COc2cc(-n3cnc4ccccc43)sc2C(N)=O)cc1 [GSK1024304] 11

Follow-up item: O=c1cc(N2CCOCC2)nc2n(Cc3cccc4ccccc34)ccn12 [GSK2333389] 7

---

# key: entry, value: %Inh
system: MAP3K4; details: concentration: 1 μM, replicates: in singlicate; n = 1
Number only, in %; omit the unit.

Query the reported %Inh for MAP3K4; item: CCc1nc(-c2cccc(C)c2)c(-c2ccnc(NCc3ccccc3)c2)s1 0

Continuing:
Query the reported %Inh for MAP3K4; item: O=C(NCCNc1ccnc(Nc2ccc(F)cc2)n1)Nc1ccccc1F 29

Follow-up item: Cc1nnc(-c2ccc3occ(-c4ccc(C(C)O)cc4)c3c2)o1 (stereo not shown) 9

Follow-up item: CCCCCc1nc2c(N)ncnc2n1CCCCC 10

Follow-up item: Cc1nnc(-c2ccc(C)c(-c3ccc(C(=O)Nc4ccc(NS(C)(=O)=O)cc4)cc3)c2)o1 19

Follow-up item: COc1cc2ncn(-c3cc(OCc4sccc4Cl)c(C(N)=O)s3)c2cc1OC 0

Follow-up item: O=C(NCCCN1CCOCC1)c1cccc(Nc2nccc(Nc3ccc(Oc4ccccc4)cc3)n2)c1 0

Follow-up item: NS(=O)(=O)c1cccc(-c2ccc3nccc(-c4cccc(S(N)(=O)=O)c4)c3c2)c1 12

---

test system: HIPK3; conditions: concentration: 1 μM, replicates: in singlicate; n = 1
assayReadout: %Inh (%)
Number only, in %; omit the unit.

Example results:
Given O=c1cc(N2CCOCC2)nc2n(Cc3cccc(C(F)(F)F)c3)ccn12 , state its recorded %Inh. 7

Follow-up item: Cc1c(Cn2c(C)nn3c(=O)cc(N4CCOC(C)C4)nc23)cccc1C(F)(F)F (centres unmarked) 7

Follow-up item: O=C(c1ccc(-c2cc(-c3c[nH]nc3-c3ccccn3)ccn2)cc1)N1CCOCC1 6

Follow-up item: O=c1cc(N2CCOCC2)nc2n(Cc3cccc(F)c3)ccn12 9

Follow-up item: Cc1cn2c(=O)cc(N3CCOCC3)nc2n1Cc1cccc(Cl)c1Cl 18

Follow-up item: COc1cc2c(cc1OC[C@@H](O)CO)ncc1c3ccc(C#N)cc3[nH]c21 94.2

Continuing:
Given CC(=O)Nc1ccc(COc2ccc(Nc3ccnc4cc(-c5ccccn5)ccc34)cc2)cc1.Cl , state its recorded %Inh. 12

Follow-up item: CN(C(=O)c1ccc(-c2cc(-c3c[nH]nc3-c3ccccn3)ccn2)cc1)C1CCOCC1 0

Follow-up item: CN(C1=C(c2ccccc2)C(=O)NC1=O)c1ccccc1 15

Follow-up item: COc1ccc(Nc2nccc(N3CCC(NC(=O)Nc4cc(C)ccc4C)C3)n2)cc1 (centres unmarked) 16

Follow-up item: Cc1nnc(-c2ccc3ncc(-c4ccc(S(C)=O)cc4)n3c2)o1 (centres unmarked) 16
